- System: DU-145 prostate
- assayProcedure: NCI-60 one-dose screen, 48 h
- setupConditions: 10 µM unless noted
About 83,000 compounds went through this panel and 20% of them were active in at least one assay; those are over-represented in the sample as a whole. Activity calls are given as the source filed them. Rule for the calls: active = growth percent below 10; inactive = the rest.
Could you please pick one outcome from this set? active, inactive

Task: // outcome(item) with item = CCC[CH2][Sn]([CH2]CCC)([CH2]CCC)[O]C(=O)c1ccc(Cl)cc1Cl
Output: active

Task: // outcome(item) with item = O=C(CCF)c1ccc(O)cc1
Output: inactive

Task: // outcome(item) with item = COc1cc2c(cc1OC)CN(C)C(C)C2 (configuration not stated)
Output: inactive

Task: // outcome(item) with item = Nc1ccc(N)c2c1Oc1ccccc1O2
Output: inactive

Task: // outcome(item) with item = COc1cc(N(CCCl)CCCl)ccc1C=Nc1ccccc1C(=O)O
Output: inactive

Task: // outcome(item) with item = Cc1cc(NC(=O)NCCOc2ccc(N3C(N)=NC(N)=NC3(C)C)cc2Cl)ccc1S(=O)(=O)F
Output: inactive

Task: // outcome(item) with item = CC(=O)OC1CCC2(C)C(=CCC3C4CC(CN5CC5)C(=O)C4(C)CCC32)C1 (configuration not stated)
Output: inactive

Task: // outcome(item) with item = CCOC(=O)C1(c2ccccc2)CCN(CC(=O)c2ccc(NC(C)=O)cc2)CC1
Output: inactive

Task: // outcome(item) with item = c1ccc2nc(OCCN3CC3)ccc2c1
Output: inactive

Task: // outcome(item) with item = O=C(O)CC(Br)C(=O)CBr (configuration not stated)
Output: inactive

Task: // outcome(item) with item = C/C(=N/OC(=O)N(C)C)c1ccc(Cl)cc1Cl
Output: inactive

Task: // outcome(item) with item = C[C@]12CCc3sc(-c4ccc(Cl)cc4)nc3C1=CC[C@@H]1[C@@H]2CC[C@]2(C)C(=O)CC[C@@H]12
Output: inactive

Task: // outcome(item) with item = O=C1NC(=O)C(Cc2ccccc2)(Cc2ccccc2)C(=O)N1
Output: inactive

Task: // outcome(item) with item = CC(=O)N(C)C1=Nc2ccc(Cl)cc2C(c2ccccc2)=[N+]([O-])C1
Output: inactive

Task: // outcome(item) with item = CNC(=O)O/N=C(/C)c1ccc(Cl)cc1
Output: inactive

Task: // outcome(item) with item = Nc1cccc(CC(=O)Nc2ccc(S(=O)(=O)F)cc2)c1
Output: inactive

Task: // outcome(item) with item = C/C1=C/C(=O)O[C@@H]2C[C@@H](CC[C@H](C)/C=C\C=C\CC1)O[C@@](OCCc1ccccc1)([C@@H]1CSC(=O)N1)C2
Output: active

Task: // outcome(item) with item = CC12CCC(=O)C=C1CCC1C2CCC2(C)C(C(=O)COC(=O)Cc3ccc(N(CCCl)CCCl)cc3)CCC12 (configuration not stated)
Output: inactive

Task: // outcome(item) with item = CO[C@@H](c1ccccc1Cl)[C@H](C)OC(N)=O
Output: inactive

Task: // outcome(item) with item = O=[N+]([O-])c1ccc(F)c([N+](=O)[O-])c1F
Output: inactive

Task: // outcome(item) with item = CNC(C)Cc1ccccc1 (configuration not stated) (tested in a mixture with another compound)
Output: inactive

Task: // outcome(item) with item = CC(C)Nc1ccc(Nc2ccccc2)cc1
Output: inactive

----------
- Test system: PC-3 prostate
- assayProcedure: NCI-60 one-dose screen, 48 h (100 = growth as untreated, 0 = no growth, -100 = all killed)
- setupConditions: 10 µM unless noted
About 83,000 compounds went through this panel and 20% of them were active in at least one assay; those are over-represented in the sample as a whole.
quantityMeasured: growth (%)
Just the number please, in %, no unit attached.

Lab note: O=C(CCc1ccco1)NC1CCN(CC2(c3ccc(Cl)cc3)CCC2)CC1 gave growth of 1.34

Lab note: CCOC(=O)C1(c2ccccc2)CCN(CC(=O)c2ccc(NC(C)=O)cc2)CC1 gave growth of 86.8

Lab note: CC(=O)O[C@H]1CCC2C3CCC4=C/C(=N/O)CCC4(C)C3CCC21C (stereo not given in full) gave growth of 93.6

Lab note: CCCCOC(=O)c1ccccc1C(=O)O.CCCCOC(=O)c1ccccc1C(=O)O.[Cu+2] gave growth of 111

Lab note: COc1ccc2c(c1)NC1=C(C(=O)OC1)C2c1cc(OC)c(OC)c(OC)c1 (stereo not given) gave growth of 20.6

Lab note: ClCCN(CCCl)c1ccc(C=NCCc2c[nH]c3ccccc23)cc1 gave growth of 57

Lab note: CCC(CC)(c1ccccc1)C(OC(N)=O)c1ccccc1 (stereo not given) gave growth of 72.3

Lab note: [Br][Pb]([c]1ccccc1)([c]1ccccc1)[c]1ccccc1 gave growth of -80.6

Lab note: CC1(C)N=C(N)N=C(N)N1c1cccc(C(=O)Nc2cccc(S(=O)(=O)F)c2)c1 gave growth of 97.1

Lab note: C=CCc1ccc(OC(=O)Cc2ccccc2)c(OC)c1 gave growth of 100

Lab note: COc1cc(N(CCCl)CCCl)ccc1C=Nc1ccccc1C(=O)O gave growth of 90.3

Lab note: CCC(C)(C)O gave growth of 100

Lab note: O=C(N/N=C/c1ccc([N+](=O)[O-])o1)c1cc([N+](=O)[O-])cc([N+](=O)[O-])c1O gave growth of 85.9

Lab note: ClCCN(CCCl)c1ccc(/C=C\c2ccnc3ccccc23)cc1 gave growth of 55.5

Lab note: [O]=[Sn]([CH]1CCCCC1)[CH]1CCCCC1 gave growth of -91.2

Lab note: O=C(O)C1(Br)CC12c1ccccc1-c1ccccc12 (stereo not given) gave growth of 100

Lab note: CC1(C)N=C(N)N=C(N)N1c1ccc(CCC(=O)Nc2cccc(S(=O)(=O)F)c2)cc1 gave growth of 24.5

Lab note: [N-]=[N+]=NC(C(=O)O)c1ccccc1 (stereo not given) gave growth of 112

Lab note: COC(=O)C[Se]C(=O)c1ccccc1OC(C)=O gave growth of 77.7

Lab note: NC(=O)NC(=O)CI gave growth of 98.5

----------
- System: HCT-15 colon
- assayProcedure: NCI-60 one-dose screen, 48 h (100 = growth as untreated, 0 = no growth, -100 = all killed)
- setupConditions: 10 µM
About 83,000 compounds went through this panel and 20% of them were active in at least one assay; those are over-represented in the sample as a whole.
quantityMeasured: growth (%)
Just the number please, in %, no unit attached.

Lab note: n1nc(-c2nonc2-c2nn[nH]n2)n[nH]1 gave growth of 106

Lab note: COc1ccccc1N1CCN(CCc2c[nH]c3cc4c(cc23)OCO4)CC1 gave growth of 68

Lab note: CC(C)N=C(NC(C)C)N1CC1 gave growth of 110

Lab note: CC(=O)N(C)C1=Nc2ccc(Cl)cc2C(c2ccccc2)=[N+]([O-])C1 gave growth of 108

Lab note: CCOC(=O)/C(C#N)=C/c1ccc(N(CCCl)CCCl)cc1 gave growth of 91.1

Lab note: NC(=O)OCC(CO)(c1ccccc1)c1ccccc1 gave growth of 98.8

Lab note: CCCCOC(=O)c1ccccc1C(=O)O.CCCCOC(=O)c1ccccc1C(=O)O.[Cu+2] gave growth of 112

Lab note: CCC(C)/C=C(C)/C=C/C(=O)c1c(O)c(-c2ccc(O)cc2)c[nH]c1=O (centres undefined) gave growth of 38.8

Lab note: CC(C)C1c2ccc(O)cc2Oc2nc(N)c(C#N)c(N)c21 (centres undefined) gave growth of 107

Lab note: COc1ccc(C(c2ccc(OC)cc2)C(Cl)(Cl)Cl)cc1 gave growth of 91.8

Lab note: OC1CCCCC1N1CCC(c2ccccc2)CC1 (centres undefined) gave growth of 110

Lab note: C[CH2][Pb]([CH2]C)([CH2]C)[O]C(=O)COC gave growth of 8.99

Lab note: O=[N+]([O-])c1ccc(/C=C/C=C/c2ccc(S(=O)(=O)F)cc2)c(Cl)c1 gave growth of 98

Lab note: CCC1([N+](=O)[O-])COP(=O)(NCc2cccnc2)OC1 (centres undefined) gave growth of 104

Lab note: O1[As]2O[As]3O[As]1O[As](O2)O3 gave growth of -23.4

Lab note: Fc1ccc(C2=NN(c3ccccc3)C(c3sc(N(CCCl)CCCl)nc3Cl)C2)cc1 (centres undefined) gave growth of 94.3

Lab note: COc1ccc(C(=O)c2ccc([As]=O)cc2)cc1 (centres undefined) gave growth of -73

Lab note: CC1(C)CC(=O)CC(C)(C)N1N=O gave growth of 98.1

Lab note: C/C(=C\c1cc(C(F)(F)F)n(-c2ccc(N)cc2)n1)[C@@H]1C[C@@H]2O[C@]2(C)CCC[C@H](C)[C@H](O)[C@@H](C)C(=O)C(C)(C)[C@@H](O)CC(=O)O1 gave growth of 9.88

Lab note: O=C(CCc1ccco1)NC1CCN(CC2(c3ccc(Cl)cc3)CCC2)CC1 gave growth of 18.7

Lab note: C[C@@H]1CC[C@@H]2[C@@H]1[C@H](OC(=O)/C=C/C1CCCCC1)[C@]1(C3CCCCC3)C[C@@H](OC(=O)CO)[C@@]2(C)O1 gave growth of 48.4

Lab note: Nc1cccc2c1Oc1ccccc1O2 gave growth of 102

Lab note: N#[N+]c1cnc([O-])[nH]c1=O gave growth of 89.1

Lab note: CCCC(C)(C)c1ccc2c(c1)OC(C)(C)[C@@H]1CC=C(C)C[C@@H]21 gave growth of 107

Lab note: O=S(=O)(O)c1ccc(-c2ccc([As](=O)(O)O)cc2)cc1 gave growth of 103

Lab note: CN(Cc1cccnc1)N=O gave growth of 100

Lab note: CNC(=O)Oc1ccccc1 gave growth of 102

Lab note: CC[C@@]1(C2O[C@@H](C3O[C@@](O)(CC)[C@H](C)C[C@@H]3C)C[C@@H]2C)CC[C@H]([C@]2(C)CCC3(C[C@H](O)[C@@H](C)[C@@H]([C@H](C)[C@@H](OC)[C@H](C)C(=O)O)O3)O2)O1 (some centres undefined) gave growth of 11.5

Lab note: COc1ccc(OC)c(/C=C(/C)[N+](=O)[O-])c1 gave growth of -33.1

Lab note: CC1(C)N=C(N)N=C(N)N1c1ccc(CCC(=O)Nc2cccc(S(=O)(=O)F)c2)cc1 gave growth of 81.9

Lab note: C[As](=O)(O)c1ccc(C(=O)O)cc1 gave growth of 99.2

Lab note: O=[As]c1ccc(C(=O)c2ccc(Oc3ccccc3)cc2)cc1 (centres undefined) gave growth of -78.3

Lab note: c1ccc(-c2ccc3ccccc3[o+]2)cc1 gave growth of 107

Lab note: CC(/C=N/N=C(N)N)=N/N=C(N)N gave growth of 98

Lab note: COc1cc(/C=C\c2cc(OC)c(OC)c(OC)c2)cc(N/C=C\C(=O)c2ccc(OC(F)(F)F)cc2)c1OC gave growth of 9.36

Lab note: FC(F)=C(F)c1ccccc1 gave growth of 107

Lab note: O=C(O)CC(Br)C(=O)CBr (centres undefined) gave growth of 93.5

Lab note: CCC1CN1P(=O)(OCCOC)N1CC1CC (centres undefined) gave growth of 99.4

Lab note: O=C(CI)Nc1ccc(Br)cc1 gave growth of 1.13
